pKi: −log10 of the molar value.
Here's what we have: pKi numbers for human μ opioid receptor (Homo sapiens).
parameter: pKi

In [3]: df
Out[3]:
                                   compound  parameter  result
0        C#CCOc1ccccc1CCCCCC(=O)NS(C)(=O)=O        pKi  < 5.00
1  CC(=O)N1CCN(c2ccc(OCC3COC(Cn4ccnc4)(c4ccc(Cl)cc4Cl)O3)cc2)CC1 (stereo not drawn)        pKi  < 5.00
2  Clc1ccc(COC(Cn2ccnc2)c2ccc(Cl)cc2Cl)c(Cl)c1 (stereo not drawn)        pKi    5.85

----------
Here's what we have: Ki numbers for human κ opioid receptor (Homo sapiens, UniProt P41145).
parameter: Ki (nM)

>>> df
                                   compound  parameter  censor_symbol  measured_number
0  CC(=O)N1CCN(c2ccc(OCC3COC(Cn4ccnc4)(c4ccc(Cl)cc4Cl)O3)cc2)CC1 (stereo not shown) [Ketoconazole, ketoconazole]         Ki              >            10000
1  Clc1ccccc1C(c1ccccc1)(c1ccccc1)n1ccnc1 [Clotrimazole, clotrimazole]         Ki              =              260
2  C#CCOc1ccccc1CCCCCC(=O)NS(C)(=O)=O [MS-PPOH]         Ki              >            10000
3  Clc1ccc(COC(Cn2ccnc2)c2ccc(Cl)cc2Cl)c(Cl)c1 (stereo not shown) [Miconazole, miconazole]         Ki              =              760

----------
Here's what we have: pKi numbers for human δ opioid receptor (Homo sapiens).
pKi: −log10 of the molar value.
parameter: pKi

>>> print(df.to_string())
                                   compound  censor_symbol  measured_number
0  C#CCOc1ccccc1CCCCCC(=O)NS(C)(=O)=O [MS-PPOH]              <             5.00
1  Clc1ccc(COC(Cn2ccnc2)c2ccc(Cl)cc2Cl)c(Cl)c1 (stereo not shown) [Miconazole, miconazole]              =             6.23
2  CC(=O)N1CCN(c2ccc(OCC3COC(Cn4ccnc4)(c4ccc(Cl)cc4Cl)O3)cc2)CC1 (stereo not shown) [Ketoconazole, ketoconazole]              <             5.00
3  Clc1ccccc1C(c1ccccc1)(c1ccccc1)n1ccnc1 [Clotrimazole, clotrimazole]              =             6.11

----------
Here's what we have: Ki numbers for human H3 receptor (Homo sapiens).
parameter: Ki (µM)

In [3]: df
Out[3]:
                                   molecule  measured_number
0  Clc1ccc(COC(Cn2ccnc2)c2ccc(Cl)cc2Cl)c(Cl)c1 (centres unmarked)             4.47
1        C#CCOc1ccccc1CCCCCC(=O)NS(C)(=O)=O             22.2

----------
- tested_target: UniProt P33261
- Sequence (P33261 whole entry): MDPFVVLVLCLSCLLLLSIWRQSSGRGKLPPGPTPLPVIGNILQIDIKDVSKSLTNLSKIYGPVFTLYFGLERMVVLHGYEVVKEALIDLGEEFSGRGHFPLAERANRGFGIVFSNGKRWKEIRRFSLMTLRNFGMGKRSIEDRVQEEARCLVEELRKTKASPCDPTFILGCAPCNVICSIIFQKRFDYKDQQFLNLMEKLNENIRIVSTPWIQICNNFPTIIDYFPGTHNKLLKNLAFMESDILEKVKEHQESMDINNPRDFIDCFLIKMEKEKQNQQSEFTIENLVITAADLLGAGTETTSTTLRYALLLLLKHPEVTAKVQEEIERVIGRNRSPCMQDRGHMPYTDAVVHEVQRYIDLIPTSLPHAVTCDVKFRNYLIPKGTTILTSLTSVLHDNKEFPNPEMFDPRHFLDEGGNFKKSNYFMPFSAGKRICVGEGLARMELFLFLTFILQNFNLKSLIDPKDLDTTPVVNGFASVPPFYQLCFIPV
- protocol_description: biochemical
parameter: Ki (nM)

In [3]: df
Out[3]:
                          compound_string   tested_target  unit_of_measure  measured_number
0  Clc1ccccc1C(c1ccccc1)(c1ccccc1)n1ccnc1  UniProt P33261               nM              316
